- System: SK-OV-3 ovarian
- Method Notes: NCI tumour cell line growth inhibition, 48 h
Readout: TGI

Which value of TGI has been reported for CCN1CCN(c2cc(C)nc(N(CCCNc3ccnc4cc(Cl)ccc34)Cc3cccs3)n2)CC1 in the records?
10.5 µM

Which value of TGI has been reported for O=c1c(O)c(O)c1=O.[NH2-].[NH2-].[NH2-].[NH2-].[NH2-].[Ru+5] in the records?
> 100 µM

Which value of TGI has been reported for Cc1ccc(S(=O)(=O)N/N=C(/CC(=O)c2c(C)n([O-])c3ccccc3[n+]2=O)C(=O)Nc2ccc(C)c(C)c2)cc1 in the records?
> 100 µM

Which value of TGI has been reported for COC(=O)CNC(=O)c1cc(C)cc2c1Oc1c(cc(C)cc1C(=O)NCC(=O)OC)S2 in the records?
> 100 µM

Which value of TGI has been reported for C[C@]12CC(c3ccccc3O1)C(C(N)=O)C(=O)N2 (stereo partly specified) in the records?
> 100 µM

Which value of TGI has been reported for COc1ccc(-c2[nH]c(=O)n(C3OC(CO)C(O)C(O)C3O)c(=O)c2C#N)cc1 (stereo unspecified) in the records?
> 100 µM

Which value of TGI has been reported for O=C1OCC2=C1C(c1cccc(F)c1)c1cc3c(cc1N2CCO)CCC3 (stereo unspecified) in the records?
> 50 µM

Which value of TGI has been reported for O=C1C=CC(=O)c2c(O)c(CO)c(CO)c(O)c21 in the records?
18 µM

Which value of TGI has been reported for CC(NC(=O)C(CC(=O)OCc1ccccc1)NC(=O)OCc1ccccc1)c1ccccc1 (stereo unspecified) in the records?
> 100 µM

Which value of TGI has been reported for C=CCNC(=O)/C=C\C(=O)O in the records?
> 100 µM

Which value of TGI has been reported for CC1=NC(C(=O)O)Cc2c1[nH]c1ccccc21 (stereo unspecified) in the records?
> 100 µM

----------
- System: NCI-H226 lung
- Method Notes: NCI tumour cell line growth inhibition, 48 h; in the data active = GI50 below about 0.43 µM; inactive = the rest
Reply using exactly one outcome from T for active, F for inactive

// known answers, use as guide
// outcome(item) with item = Cn1nc(-c2cccs2)cc1/N=C(\N)C(C)(C#N)Cc1ccccc1 (stereo not given)
F

// outcome(item) with item = CC(C)(C)N=Cc1ccccc1[O-].CC(C)(C)N=Cc1ccccc1[O-].[Co+2]
F

// outcome(item) with item = COc1ccc2c(CCC(c3ccccc3)c3ccccc3)c3[n+](cc2c1OC)CCc1cc2c(cc1-3)OCO2
F

// outcome(item) with item = Cc1cc(OCc2n[nH]c(=S)n2/N=C/c2ccc(F)cc2)ccc1Cl
F

# evaluate next
// outcome(item) with item = COc1ccc2c(c1)N(CCO)C1=C(C(=O)OC1)C2c1cc(OC)c(OC)c(OC)c1 (stereo not given)
T

----------
- Test system: UACC-62 melanoma
- Method Notes: NCI tumour cell line growth inhibition, 48 h; in the data active means GI50 below about 0.43 µM; inactive means the rest
Reply using exactly one outcome from active, inactive

// known answers, use as guide
// outcome(item) with item = COc1cc(CC(C)C(C)Cc2ccc(O)c(OC)c2)ccc1O (centres undefined)
inactive

// outcome(item) with item = COC(=O)c1c2c(c[n+]([O-])c1C)C(=O)C=C(NCc1ccccc1)C2=O
active

// outcome(item) with item = CC(C)=CC(=O)OCC(=O)O[C@@H]1C[C@]2(C(C)C)O[C@@]1(C)[C@@H]1CC[C@@H](C)[C@H]1[C@@H]2OC(=O)/C=C/c1ccccc1
inactive

New cases:
// outcome(item) with item = O=C(OC(CNc1c(C(=O)c2ccccc2)c(=O)n(Cc2ccccc2)c(=O)n1Cc1ccccc1)CN1CCOCC1)c1ccccc1 (centres undefined)
inactive

// outcome(item) with item = CC[C@]12C=CCN3CC[C@]4(C(=C(C(=O)OC)C1)Nc1cc(OC)c(OC(C)=O)cc14)[C@@H]32
active

// outcome(item) with item = COc1cc(C(=O)/C=C/c2c(-c3cccs3)nc3sc(C)cn23)cc(OC)c1OC
inactive

// outcome(item) with item = N#CC(C#N)=C/C=C(\Sc1ccc(F)c(Cl)c1)c1ccc(Cl)cc1
inactive

// outcome(item) with item = O=C1C=CC(=O)c2c1c1c(c3c2C2c4ccccc4C3c3ccccc32)C2c3ccccc3C1c1ccccc12
inactive

// outcome(item) with item = COc1cc2c3c(n(CCCN=[N+]=[N-])c(=O)c2cc1OC)-c1ccc(C#N)cc1C3=O
inactive

Attribution: PubChem BioAssay (NCI)
